Reported EC50 is given for each of the following compounds.
System: THP-1 viability, CellTiter-Glo luminescence, 72 h
Assay: THP-1 cell cytotoxicity, dose response, cytotoxicity control for Salmonella PhoP regulon inhibitors, S. typhimurium screen hits (AID 2253)

Recorded EC50, per entry:
CCOc1ccc(CNc2ccc(N3CCCC3)cc2)cc1 11.8 µM
Cc1ccc(Nc2c3c(nc4ccccc24)CCC3)cc1 12.2 µM

Alright, here's another compound for you.
In: Tell me the measured EC50 of O=[N+]([O-])c1ccc(-n2nnnc2-c2ccccc2)c([N+](=O)[O-])c1 , please.
Out: 10.1 µM

----------
// values below are reported EC50
Test system: THP-1 viability, CellTiter-Glo luminescence, 72 h
Assay: THP-1 cell cytotoxicity, dose response, cytotoxicity control for Salmonella PhoP regulon inhibitors, S. typhimurium screen hits (AID 2253)

Example molecules with recorded EC50:
Molecule	EC50
Cn1c(=N)n(CC(=O)c2ccc(Br)s2)c2ccccc21	10.1 µM
Cc1ccc(C(=O)N/N=C/c2ccc([N+](=O)[O-])s2)cc1	12.3 µM

Then this molecule:
In: Which value of EC50 has been reported for O=C1C2=C(NC(=S)NC2c2ccc(Cl)cc2)NC(c2ccc(Cl)cc2)N1c1ccc(Cl)cc1 (stereo not drawn) in the records?
Out: 11.3 µM

----------
Test system: THP-1 viability, CellTiter-Glo luminescence, 72 h
Assay: THP-1 cell cytotoxicity, dose response, cytotoxicity control for Salmonella PhoP regulon inhibitors, S. typhimurium screen hits (AID 2253)
Entries and their pEC50
Quick note: pEC50 means taking -log10 of the concentration in moles per liter.

Example molecules with recorded pEC50:
Cc1c(C)n(Cc2ccccc2)c2ncnc(NN)c12 4.63
C#CCn1cc(/C=N/Nc2nc3ccccc3[nH]2)c2ccccc21 5.21
Oc1ccc(Br)cc1-c1nc2cnccn2c1NC1CCCCC1 4.33
COc1ccc(Nc2nnc(SCc3cn4c(C)cccc4n3)s2)cc1 5.03
O=S1(=O)N=C(N/N=C/c2ccccn2)c2ccccc21 4.64

Moving on to the next molecule.
In: GET /values?readout=pEC50&item= Cc1ccc(S(=O)(=O)/N=C2/C=C(Sc3ncn[nH]3)C(=O)c3ccccc32)c(C)c1
Out: 5.26

----------
System: THP-1 viability, CellTiter-Glo luminescence, 72 h
Test: THP-1 cell cytotoxicity, dose response, cytotoxicity control for Salmonella PhoP regulon inhibitors, S. typhimurium screen hits (AID 2253)
Measured EC50 by item

Reference set, count: 5
Compound	EC50
COC(=O)c1ccc(Nc2cc(C)nc3ccccc23)cc1	6.32 µM
Cc1nc2c(=O)n(C)c(=O)n(C)c2nc1Cl	7.48 µM
Cc1ccccc1OCCSCc1nc2ccccc2[nH]1	30.4 µM
CCCCCCCSc1cc(OC)c(CCNC)cc1OC	6.34 µM
N#C/C(=C\c1c(Cl)cccc1Cl)c1nc2ccccc2[nH]1	27.9 µM

In: What measured EC50 goes with Nc1nonc1C(=O)N/N=C/c1cc(Br)ccc1O ?
Out: 3.12 µM

In: So what's the measured EC50 for this one? CCCCCCCCNC(C)C(O)c1ccc(SC(C)C)cc1 (stereo not drawn)
Out: 10.7 µM

In: Which measured EC50 value corresponds to OC(c1cc(C(F)(F)F)nc2c(Cl)cc(Cl)cc12)C1CCCCN1 (stereo not drawn) ?
Out: 12.6 µM

In: What measured EC50 goes with Cc1ccc(C(C[N+](=O)[O-])c2c(N)n(C)c(=O)n(C)c2=O)cc1 (stereo not drawn) ?
Out: 34.2 µM

In: Fill in the blank: the reported EC50 of Cc1nc([N+](=O)[O-])c(Br)n1CC(=O)c1ccccc1 is ____.
Out: 17.7 µM
